Measured values drawn from patent US20050112126A1 for this set.

Target: T1, VEGF (human, UniProt P15692-4 27-191, limits assumed)
T1 construct: Biotinylated in the KDR-IgG ELISA, amine-coupled to the chip in BIAcore; also called biotinylated VEGF; vascular endothelial growth factor
T1 sequence (P15692 other isoform, or with tags, fused parts or gaps limits assumed): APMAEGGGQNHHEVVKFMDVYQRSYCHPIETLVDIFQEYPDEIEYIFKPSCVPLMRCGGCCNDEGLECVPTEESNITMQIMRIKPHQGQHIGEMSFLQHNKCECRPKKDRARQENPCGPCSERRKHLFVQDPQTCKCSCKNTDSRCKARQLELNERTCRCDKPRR
Assay: competitive phage-ELISA, relative to pY0192
Protocol: In such an assay, phages were first serially diluted to determine a fractional saturation titer which was then held constant and used to incubate with varying concentrations of VEGF (starting at 200 nM to 0 nM) in solution. […] Thereafter, the phage solution was removed and the remaining bound phages were detected with a solution of rabbit anti-phage antibody mixed with goat anti-rabbit conjugate of horse radish peroxidase. […] Optical density at 492 nm was measured on a spectrophotometric plate reader. […]
Reported IC50 (mut)/IC50 (wt) values are given for each entry in this list.

Binder	IC50 (mut)/IC50 (wt) (ratio)
pY0192 VL Q28A (Fab, V domains shown, Ala-scan variant of pY0192; Fab on phage) VH: EVQLVESGGGLVQPGGSLRLSCAASGYTFTNYGINWVRQAPGKGLEWVGWINTYTGEPTYAADFKRRFTFSLDTSKSTAYLQMNSLRAEDTAVYYCAKYPHYYGSSHWYFDVWGQGTL VL: DIQLTQSPSSLSASVGDRVTITCRANEALSNYLNWYQQKPGKAPKVLIYFTSSLHSGVPSRFSGSGSGTDFTLTISSLQPEDFATYYCQQYSTVPWTFGQGTKVEIKR	1
pY0192 VH F29A (Fab, V domains shown, Ala-scan variant of pY0192; Fab on phage) VH: EVQLVESGGGLVQPGGSLRLSCAASGYTATNYGINWVRQAPGKGLEWVGWINTYTGEPTYAADFKRRFTFSLDTSKSTAYLQMNSLRAEDTAVYYCAKYPHYYGSSHWYFDVWGQGTL VL: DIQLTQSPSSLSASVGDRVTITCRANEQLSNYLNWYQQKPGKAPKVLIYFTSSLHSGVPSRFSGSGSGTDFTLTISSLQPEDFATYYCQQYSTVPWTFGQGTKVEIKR	16
